Target: ferroportin (Homo sapiens, UniProt Q9NP59)
Sequence (Q9NP59 1-571): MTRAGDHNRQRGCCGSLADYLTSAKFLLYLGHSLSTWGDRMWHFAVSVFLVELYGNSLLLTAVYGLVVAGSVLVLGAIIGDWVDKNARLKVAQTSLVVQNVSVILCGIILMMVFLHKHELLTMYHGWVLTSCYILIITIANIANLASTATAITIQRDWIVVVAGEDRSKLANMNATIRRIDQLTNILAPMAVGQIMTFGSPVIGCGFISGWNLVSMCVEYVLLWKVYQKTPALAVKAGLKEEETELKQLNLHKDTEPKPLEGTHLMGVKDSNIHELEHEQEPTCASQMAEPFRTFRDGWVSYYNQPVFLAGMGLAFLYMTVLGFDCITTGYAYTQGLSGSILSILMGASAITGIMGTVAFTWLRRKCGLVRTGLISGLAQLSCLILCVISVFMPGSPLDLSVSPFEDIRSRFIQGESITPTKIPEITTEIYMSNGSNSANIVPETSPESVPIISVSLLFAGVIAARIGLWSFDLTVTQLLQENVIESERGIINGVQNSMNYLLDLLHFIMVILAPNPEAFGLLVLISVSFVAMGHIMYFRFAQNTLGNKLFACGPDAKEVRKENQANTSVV
Experiment: FPN activity assay: ferroportin-GFP internalization/degradation in HEK293 cells
Format: cell-based
Set-up: expressed in transfected cells
Details: ferroportin-GFP internalization/degradation, HEK293 cells; Table 6E; read-out: FPN IC50
Starred links: 1 amine or outer side, 2 acyl side, 3 side chain; linkers in the order of their positions; H or OH if unused. Positions of bridges follow the written chain, without caps; N, C: chain ends. Non-standard residues stand in square brackets, D forms with d. Residues, ends and D or L forms follow the SMILES beside them. Groups on a side chain read outwards from the residue. *: point of attachment. C18 diacid = O=C(O)CCCCCCCCCCCCCCCCC(=O)*; Dip = N[C@H](C(=O)O)C(c1ccccc1)c1ccccc1; X6 = O=C([C@H](CC1N=NN=N1)N[*:1])[*:2]; β3hF = N[C@H](CC(=O)O)Cc1ccccc1; NMeK = CN[C@@H](CCCCN)C(=O)O; Isovaleryl = CC(C)CC(=O)*; Dap = NC[C@H](N)C(=O)O; AEEA = NCCOCCOCC(=O)O
measured-endpoint: DC50

molecule="CC(C)CC(=O)N[C@@H](CC1N=NN=N1)C(=O)N[C@H](C(=O)N[C@@H](Cc1cnc[nH]1)C(=O)N[C@H](C(=O)N1CCC[C@H]1C(=O)N[C@H]1CSSC[C@@H](C(=O)N(C)[C@@H](CCCCNC(=O)COCCOCCNC(=O)COCCOCCNC(=O)[C@H](CN)NC(=O)CCCCCCCCCCCCCCCCC(=O)O)C(=O)N[C@H](CC(=O)N[C@H](CCCCN)C(N)=O)Cc2ccccc2)NC1=O)C(c1ccccc1)c1ccccc1)[C@@H](C)O [compound 288] (Isovaleryl-[X6]TH[Dip]PCC[NMeK]([AEEA-AEEA-Dap-C18 diacid])[β3hF][dK]-NH2; disulfide 6-7)" result="10 to 100 nM"
